# Tested on: Neisseria gonorrhoeae
# Test summary: EC50 determination: plate-based broth growth assay (absorbance at 600 nm) of Neisseria gonorrhoeae
# Format: cell-based
# Particulars: absorbance 600 nm after 20 hours at 37° C./5% CO2, read-out: IC50 (Inhibitory concentration) against Neisseria gonorrhoeae
# Protocol: Actively growing Neisseria gonorrhoeae on GC agar (based on; Spence et. al. (2008): Curr. Protoc. Microbiol. 8:4A.1.1-4A.1.26) plates are harvested and transferred to GC broth (based on; Spence et al (2008): Curr. Protoc. Microbiol. 8:4A.1.1-4A.1.26) to generate a liquid stock. […] EC50 values were determined by assaying growth (absorbance read at 600 nm, after 20 hours at 37° C./5% CO2) of Neisseria gonorrhoeae across a 10-point dilution series of the test compound. […]
pIC50: −log10 of the molar value.
Provide the recorded pIC50 for the entries that follow.

Here's what some known entries look like.
{"columns": ["Molecule", "Result type", "Result"],
 "data": [
  ["NC(=O)c1csc(Nc2nc3cccc(Cl)c3o2)n1 [Example 36]", "pIC50", "≥ 6.00"],
  ["Clc1ccc2oc(Nc3cscn3)nc2c1 [Example 173]", "pIC50", "≥ 5.00"],
  ["NC(=O)c1csc(Nc2nc3ccc(Cl)cc3o2)n1 [Example 33]", "pIC50", "≥ 6.00"]
]}

For each entry beneath this line, provide reported pIC50.
1. Cc1nccc2oc(Nc3nc4ccccc4o3)nc12 [Example 171]
2. Cc1noc(Nc2nc3cc(C(F)(F)F)ccc3o2)n1 [Example 31]
3. Fc1ccc2nc(Nc3nnco3)oc2c1 [Example 63]

Response:
1: ≥ 6.00; 2: ≥ 6.00; 3: ≥ 6.00

---

Provide the recorded pIC50 for the entries that follow.
# Test system: Neisseria gonorrhoeae
# Test summary: EC50 determination: plate-based broth growth assay (absorbance at 600 nm) of Neisseria gonorrhoeae
# Format: cell-based
# Particulars: absorbance 600 nm after 20 hours at 37° C./5% CO2, read-out: IC50 (Inhibitory concentration) against Neisseria gonorrhoeae
pIC50: −log10 of the molar value.

For each entry beneath this line, provide reported pIC50.
1. FC(F)(F)c1ccc2nc(Nc3ncc(N4CCCCC4)s3)oc2c1 [Example 28]
2. Cc1nnc(Nc2nc3c(C)nccc3o2)o1 [Example 154]
3. O=C(NC1CC1)c1cnc(Nc2nc3cc(C(F)(F)F)ccc3o2)s1 [Example 37]
4. Clc1ccc2nc(Nc3ccon3)oc2c1 [Example 46]
5. O=C(O)c1ccc2nc(Nc3nnco3)oc2c1 [Example 192]
6. O=C(O)c1csc(Nc2nc3cc(Cl)ccc3o2)n1 [Example 96]

Response:
1. ≥ 6.00
2. ≥ 5.00
3. ≥ 5.00
4. ≥ 6.00
5. ≥ 5.00
6. ≥ 5.00

For each entry beneath this line, provide reported pIC50.
1. c1nnc(Nc2nc3ccc(N4CCCC4)cc3o2)o1 [Example 183]
2. FC(F)(F)c1cc2oc(Nc3nc4ccccc4o3)nc2cn1 [Example 163]
3. Cc1nnc(Nc2nc3c(F)cccc3o2)[nH]1 [Example 124]

Response:
1: ≥ 6.00; 2: ≥ 7.00; 3: ≥ 6.00

Query: Can you share its pIC50? I mean this compound: Cc1nnc(Nc2nc3cnccc3o2)o1 [Example 58]
Response: ≥ 5.00

---

Provide the recorded IC50 for the entries that follow.
# System: Enterococcus Spp.
# Test summary: EC50 determination: broth growth assay of Enterococcus Spp. (Isosensitest broth)
# Type: cell-based
# Particulars: Table 1, panel of bacteria, Enterococcus faecium, 37° C., read-out: IC50 concentration against Enterococcus faecium

Here's what some known entries look like.
{"columns": ["Smiles repr", "IC50"],
 "data": [
  ["FC(F)(F)c1ccc2oc(Nc3nnco3)nc2c1", "≤ 1 µM"],
  ["FC(F)(F)c1cc2[nH]c(Nc3nc4ccccc4o3)nc2cn1", "≤ 10 µM"],
  ["FC(F)(F)c1cc2nc(Nc3nnc(CN4CCCC4)o3)oc2cc1Cl", "≤ 10 µM"],
  ["FC(F)(F)c1ccc2nc(Nc3nnc(C4CC4)o3)oc2c1", "≤ 1 µM"],
  ["Cc1nnc(Nc2nc3cc(C(F)(F)F)ccc3o2)[nH]1", "≤ 10 µM"],
  ["FC(F)(F)c1cc2oc(Nc3nc4cc(Cl)ccc4o3)nc2cn1", "≤ 10 µM"],
  ["FC(F)(F)c1ccc2oc(Nc3nc4cnccc4o3)nc2c1", "≤ 10 µM"]
]}

Kindly review the next compound as well.
Query: Can you share its IC50? I mean this compound: Clc1ccc2nc(Nc3nc4cnccc4o3)oc2c1
Response: ≤ 100 µM

---

Provide the recorded IC50 for the entries that follow.
# Test system: Neisseria gonorrhoeae
# Test summary: EC50 determination: plate-based broth growth assay (absorbance at 600 nm) of Neisseria gonorrhoeae
# Type: cell-based
# Particulars: absorbance 600 nm after 20 hours at 37° C./5% CO2, read-out: IC50 (Inhibitory concentration) against Neisseria gonorrhoeae

Here's what some known entries look like.
{"columns": ["Molecule", "Result"],
 "data": [
  ["CC(=O)N(C)c1ccc2nc(Nc3nnco3)oc2c1", "≤ 100 µM"],
  ["O=C(O)c1nnc(Nc2nc3ccc(F)cc3o2)o1", "≤ 100 µM"],
  ["Cc1nnc(Nc2nc3c(Cl)cc(Cl)cc3o2)[nH]1", "≤ 1 µM"],
  ["Cc1cc(Nc2nc3cc(C(F)(F)F)c(Cl)cc3o2)no1", "≤ 0.1 µM"],
  ["Fc1ccc2oc(Nc3nnco3)nc2c1", "≤ 1 µM"]
]}

For each entry beneath this line, provide reported IC50.
1. FC(F)(F)c1cc2nc(Nc3nnc(CN4CCCC4)o3)oc2cc1Cl
2. Clc1ccc2[nH]c(Nc3nc4cnccc4o3)nc2c1

Response:
["≤ 0.1 µM", "≤ 1 µM"]

---

Provide the recorded IC50 for the entries that follow.
# Tested on: Neisseria gonorrhoeae
# Test summary: EC50 determination: plate-based broth growth assay (absorbance at 600 nm) of Neisseria gonorrhoeae
# Format: cell-based
# Particulars: absorbance 600 nm after 20 hours at 37° C./5% CO2, read-out: IC50 (Inhibitory concentration) against Neisseria gonorrhoeae
Where a name gives a salt, the structure may show the parent alone.

Here's what some known entries look like.
{"columns": ["Compound", "Assay target", "IC50"],
 "data": [
  ["O=C(NC1CC1)c1csc(Nc2nc3ccc(Cl)cc3o2)n1", "Neisseria gonorrhoeae", "≤ 100 nM"],
  ["O=C(c1nnc(Nc2nc3c(Cl)cccc3o2)o1)N1CCCC1", "Neisseria gonorrhoeae", "≤ 10000 nM"],
  ["FC(F)(F)c1ccc2nc(Nc3nnco3)oc2c1", "Neisseria gonorrhoeae", "≤ 1000 nM"],
  ["CC(C)Oc1ccc2nc(Nc3nnco3)oc2c1", "Neisseria gonorrhoeae", "≤ 100000 nM"],
  ["CNC(=O)c1csc(Nc2nc3cc(C(F)(F)F)ccc3o2)n1", "Neisseria gonorrhoeae", "≤ 1000 nM"]
]}

For each entry beneath this line, provide reported IC50.
1. O=C(c1nnc(Nc2nc3c(Cl)cc(Cl)cc3o2)o1)N1CCCC1
2. Clc1ccc2nc(Nc3nnc(C4CCOC4)o3)oc2c1 (centres unmarked)
3. CN(C)CCNC(=O)c1csc(Nc2nc3cc(Cl)ccc3o2)n1
4. COc1cc2nc(Nc3nnco3)oc2cc1F
5. CCOC(=O)c1nnc(Nc2nc3cc(C(F)(F)F)ccc3[nH]2)o1

Response:
["≤ 1000 nM", "≤ 1000 nM", "≤ 1000 nM", "≤ 1000 nM", "≤ 1000 nM"]

For each entry beneath this line, provide reported IC50.
1. FC(F)(F)c1ccc2oc(Nc3nnc(C4CCNCC4)o3)nc2c1 [Example 145, hydrochloride]
2. NC(=O)c1csc(Nc2nc3cc(Cl)ccc3o2)n1

Response:
1. ≤ 100000 nM
2. ≤ 1000 nM

---

# Test system: Neisseria gonorrhoeae
# Test summary: EC50 determination: plate-based broth growth assay (absorbance at 600 nm) of Neisseria gonorrhoeae
# Format: cell-based
# Particulars: absorbance 600 nm after 20 hours at 37° C./5% CO2, read-out: IC50 (Inhibitory concentration) against Neisseria gonorrhoeae
pIC50: −log10 of the molar value.
Result type: pIC50

{"columns": ["Compound", "Result"],
 "data": [
  ["O=C(NC1CC1)c1csc(Nc2nc3ccc(C(F)(F)F)cc3o2)n1", "≥ 7.00"],
  ["Cn1cnnc1Nc1nc2cc(C(F)(F)F)ccc2o1", "≥ 6.00"],
  ["FC(F)(F)c1cc2oc(Nc3nc4ccccc4[nH]3)nc2cn1", "≥ 6.00"]
]}

For each entry beneath this line, provide reported pIC50.
1. NC(=O)c1csc(Nc2nc3cc(C(F)(F)F)c(Cl)cc3o2)n1
2. Clc1ccc2nc(Nc3nnc(N4CCCC4)o3)oc2c1
3. CNCc1nnc(Nc2nc3cc(C(F)(F)F)ccc3o2)o1
4. Clc1ccc2nc(Nc3nnco3)[nH]c2c1
5. Cc1nnc(Nc2nc3ccc(Cl)cc3o2)[nH]1
6. FC(F)(F)c1ccc2oc(Nc3nnc(CN4CCCC4)[nH]3)nc2c1

Response:
≥ 6.00
≥ 5.00
≥ 5.00
≥ 4.00
≥ 5.00
≥ 6.00

For each entry beneath this line, provide reported pIC50.
1. Cc1nnc(Nc2nc3cc(C(F)(F)F)ccc3o2)s1
2. Cc1nnc(Nc2nc3c(F)cccc3[nH]2)o1
3. FC(F)(F)c1ccc2oc(Nc3nc4ccccc4o3)nc2c1
4. Clc1ccc2nc(Nc3nnc(C4CCCO4)o3)oc2c1 (centres unmarked)
5. Cc1cnc(Nc2nc3cc(C(F)(F)F)ccc3o2)o1
6. Brc1ccc2nc(Nc3nnco3)oc2c1
7. CCOC(=O)c1nnc(Nc2nc3ccc(Cl)cc3o2)o1

Response:
1: ≥ 6.00; 2: ≥ 6.00; 3: ≥ 7.00; 4: ≥ 7.00; 5: ≥ 6.00; 6: ≥ 7.00; 7: ≥ 7.00
